- System Tested: T1, cynomolgus TIGIT on CHO cells (cynomolgus monkey, UniProt A0A7N9I9V4 89-312)
- T1 construct: whole, on cells; also called CHO-cyTIGIT; cyTIGIT
- T1 sequence (A0A7N9I9V4 entry or part of it): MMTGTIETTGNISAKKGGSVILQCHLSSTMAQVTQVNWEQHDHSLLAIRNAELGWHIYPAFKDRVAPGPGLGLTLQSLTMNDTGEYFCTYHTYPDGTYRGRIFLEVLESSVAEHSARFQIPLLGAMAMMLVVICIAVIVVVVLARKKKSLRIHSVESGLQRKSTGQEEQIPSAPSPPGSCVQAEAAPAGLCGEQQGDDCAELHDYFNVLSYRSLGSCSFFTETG
- Protocol Notes: FACS on CHO cells expressing cyno TIGIT, FITC anti-hIgG detection
Recorded Metric: EC50 (read off the curve)

Binder	Recorded Metric	Recorded Measurement
rat10A5 (antibody, V domains shown, SD rat-derived; rat V domains as FR/HVR pieces; also called 1.10A5; Chimeric 1.10A5) VH: QVSLKESGPGILQPSHTLSLTCSFSGFSLTTYGMGVSWIRQPSEKGLEWLASIWWNGNTYYNPSLRSRLTVSKDTSNDQAFLNVTSVDTTDTATYYCAHTGGAVITWFAYWGQGTLVTVSS VL: NIVMTQSPKSMSISIGDRVTMNCKASQSVGKNIAWYQQKTGQSPQLLIYYASNRYTGVPDRFTGGGSGTDFTLTINSVQAEDAAFFYCQHIYNSPYPFGTGTKLEIK	EC50 (read off the curve)	~0.2 nM
4.1A4.C96S.Q1E (antibody, V domains shown, FR/HVR pieces in order; also called 4.1A4.Q1E.C96S) VH: EVQLVQSGSELKKPGASVKVSCKASGYTLTNYPMNWVRQAPGRGLEWMGWINTNTGSPAYAQDFTERFVFSLDTSVTTAYLQISSLKAEDTAVYYCARTAITSVYHFDYWGQGTLVTVSS VL: DIQLTQSPSFLSASVGDRVTITCRASQGISSYLAWYQQKPGKAPRVLIYGATTLQSGVPSRFSGSESGTEFTLTISSLQPEDLATYYCQKLNSHPSSFGQGTKVEIK	EC50 (read off the curve)	~0.5 nM

Given the entry 4.1A4 (antibody, V domains shown, OMT rat-derived human antibody; also called 4.1A4.Q1.C96) VH: QVQLVQSGSELKKPGASVKVSCKASGYTLTNYPMNWVRQAPGRGLEWMGWINTNTGSPAYAQDFTERFVFSLDTSVTTAYLQISSLKAEDTAVYYCARTAITSVYHFDYWGQGTLVTVSS VL: DIQLTQSPSFLSASVGDRVTITCRASQGISSYLAWYQQKPGKAPRVLIYGATTLQSGVPSRFSGSESGTEFTLTISSLQPEDLATYYCQKLNSHPCSFGQGTKVEIK , report its measured EC50 (read off the curve).
~0.8 nM
